- system: human SPR (Homo sapiens (Human))
- Sequence (P35270 whole entry): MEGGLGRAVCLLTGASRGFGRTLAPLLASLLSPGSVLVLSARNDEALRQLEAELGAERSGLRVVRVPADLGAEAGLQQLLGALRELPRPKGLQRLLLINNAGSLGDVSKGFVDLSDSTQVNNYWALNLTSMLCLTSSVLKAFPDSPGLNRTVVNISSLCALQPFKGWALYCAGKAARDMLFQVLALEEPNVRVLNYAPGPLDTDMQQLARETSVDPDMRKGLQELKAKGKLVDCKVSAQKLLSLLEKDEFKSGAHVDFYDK
- test_details: Evaluation Example 2: Measurement of human SPR inhibitory activity (seven concentrations, sepiapterin absorbance at 420 nm)
- Format: biochemical
- condition: Evaluation Example 2, seven concentrations 0.14 nM to 100 nM, 240 minutes at room temperature, read-out: IC50
# IC50 annotations
Answer format: numeric, pM implied, no suffix.

CC(C)Cn1c(=O)c(C(=O)NC2CC2)c(O)n2ncc(/C=C/C(=O)NC(C)(C)C3CC3)c12 [compound 493]
940

Can you look up the measured IC50 of CC(C)Cn1c(=O)c(C(=O)NC2CC2)c(O)n2ncc(/C=C/C(=O)N3CCC(F)CC3)c12 [compound 463] for me?
970

Need IC50, item CC(C)Cn1c(=O)c(C(=O)NC2CC2)c(O)n2ncc(/C=C/C(=O)N3C4CCCC3COC4)c12 [compound 542]
780

Quick one: IC50 for Cn1ccc(Nc2cc3n(CC(C)(C)C)c(=O)c(C(=O)NC4CC4)c(O)n3n2)n1 [Synthesis Example 346] ?
1770

Sample Cc1nn2c(O)c(C(=O)NC3CC3)c(=O)n(CC(C)C)c2c1/C=C/C(=O)N1CCC[C@H]1C(C)(C)O [Synthesis Example 677] — what was its IC50?
950

Reported IC50 for CC(C)Cn1c(=O)c(C(=O)NC2CC2)c(O)n2ncc(/C=C/c3ccc(C(F)(F)F)nc3)c12 [Synthesis Example 248] : what is it?
1890

Requested field: IC50. Item: CC(C)Cn1c(=O)c(C(=O)NC2CC2)c(O)n2ncc(/C=C/C(=O)N3CCN(CC(F)(F)F)CC3)c12 [compound 506]
800

Consider the compound shown here: Cc1cncnc1Nc1cc2n(CC(C)(C)C)c(=O)c(C(=O)NC3CC3)c(O)n2n1 [Synthesis Example 340] What is its recorded IC50?
1920
